The entries below are paired with their reported pIC50.
# Tgt: Human complement C1s enzyme (Homo sapiens, UniProt P09871)
# Sequence (P09871 438-688 limits assumed): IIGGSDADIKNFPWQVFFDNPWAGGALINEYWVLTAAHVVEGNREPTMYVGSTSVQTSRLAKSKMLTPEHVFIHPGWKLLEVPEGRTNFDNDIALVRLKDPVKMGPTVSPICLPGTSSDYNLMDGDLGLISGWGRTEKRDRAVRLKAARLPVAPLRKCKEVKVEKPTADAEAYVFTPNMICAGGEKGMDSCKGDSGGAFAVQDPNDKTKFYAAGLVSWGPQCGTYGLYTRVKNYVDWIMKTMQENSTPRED
# Sequence (P09871 16-437 partner limits assumed): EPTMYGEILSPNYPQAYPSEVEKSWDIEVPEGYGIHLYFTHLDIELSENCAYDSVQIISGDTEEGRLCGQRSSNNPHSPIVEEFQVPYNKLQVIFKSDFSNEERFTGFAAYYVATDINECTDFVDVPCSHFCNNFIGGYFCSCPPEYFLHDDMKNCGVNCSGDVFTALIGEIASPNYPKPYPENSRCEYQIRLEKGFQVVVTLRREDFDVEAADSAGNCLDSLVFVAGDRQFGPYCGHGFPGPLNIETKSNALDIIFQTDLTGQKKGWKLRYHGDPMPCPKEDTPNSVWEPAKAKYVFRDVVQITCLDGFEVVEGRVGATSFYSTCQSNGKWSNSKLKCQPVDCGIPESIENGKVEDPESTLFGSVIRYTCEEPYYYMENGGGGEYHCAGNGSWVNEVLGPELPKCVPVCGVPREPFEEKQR
# Method description: Human C1s enzyme assay
# Type: biochemical
# Condition summary: human complement C1s enzyme 1.16 nM, substrate Z-L-Lys-SBzl 100 μM, 5 min preincubation; read-out: IC50 (Stars), C1s Inhibiting Activity
pIC50: −log10 of the molar value.

# count of solved cases: 2
> print(dat)
                              sample.smiles   value
1  Cc1ccc(Oc2cccc(C(=O)NCC(=O)N3C[C@H](OC(F)F)C[C@H]3C(=O)NCc3cc4c(s3)CCNC4)c2)c(F)c1  > 7.00
2  Cc1cc(C(=O)NCC(=O)N2C[C@H](OC(F)F)C[C@H]2C(=O)N[C@H](C)c2cc3cnccc3[nH]2)ccc1Oc1ccccc1  > 7.00

Now look at this one.
Checklist item: pIC50 tested on Human complement C1s enzyme (Homo sapiens, UniProt P09871), entry `O=C(NCC(=O)N1C[C@H](OC(F)F)C[C@H]1C(=O)NCc1ccc2[nH]ncc2n1)c1ccc2c(c1)Oc1ccccc1S2` , value?
< 6.00
